Molecular target: AgBzz1-D1
Experiment: SPOT peptide array binding signal intensity (averaged, normalized) (arbitrary units (background-subtracted, floor 0; scale differs between SH3 domains)); higher = stronger binding of the SH3 domain to the peptide
Kindly supply the reported SPOT peptide array binding signal intensity values for the records listed here.

Binder	Reported Measurement
NLDRSKISLPDFDDE	26
SLSRRRFSLPSMPNV	44.5
IKKRNKIRLPSGSPE	22
RNNRPVPPPPPMRTT	232
GRSRLFPHSPLGRSS	26.5
GRLRPKRIAPWHLIQ	22

We now examine a further binder.
Field SPOT peptide array binding signal intensity (entry GKLKHIPRRPYEIER ) reads 11
